Every entry's value here was drawn from ChEMBL document CHEMBL5244271.

- assay.comment: Activation of rabbit sGC assessed as induction of preconstricted aortic ring relaxation
- measurement.setup: Oryctolagus cuniculus
Exercise: for every item that follows, state its recorded pIC50.
The meaning of pIC50 here: minus log10 of the concentration in molar units.

Given Nc1nc(-c2nn(Cc3ccccc3F)c3ncccc23)ncc1C1CC1 , state its recorded pIC50. 6.52

What do we get for OCc1ccc(-c2nn(Cc3ccccc3)c3ccccc23)o1 ? 5.00

What do we get for OCc1ccc(-c2nn(Cc3ccccc3F)c3ncccc23)o1 ? 5.77

What do we get for OCc1ccc(-c2nn(Cc3ccccc3F)c3ccccc23)o1 ? 5.31

What do we get for Nc1nc(-c2nn(Cc3ccccc3F)c3ncccc23)nc(N)c1N1CCOCC1 ? 7.00

What do we get for COC(=O)N(C)c1c(N)nc(-c2nn(Cc3ccccc3F)c3ncccc23)nc1N ? 6.92

What do we get for Nc1ccnc(-c2nn(Cc3ccccc3F)c3ncccc23)n1 ? 6.57
